Measured values drawn from paper PMC8000495 for this set.

# target_of_assay: estrogen receptor α (ERα) (Homo sapiens, UniProt P03372)
# Sequence (P03372 1-595): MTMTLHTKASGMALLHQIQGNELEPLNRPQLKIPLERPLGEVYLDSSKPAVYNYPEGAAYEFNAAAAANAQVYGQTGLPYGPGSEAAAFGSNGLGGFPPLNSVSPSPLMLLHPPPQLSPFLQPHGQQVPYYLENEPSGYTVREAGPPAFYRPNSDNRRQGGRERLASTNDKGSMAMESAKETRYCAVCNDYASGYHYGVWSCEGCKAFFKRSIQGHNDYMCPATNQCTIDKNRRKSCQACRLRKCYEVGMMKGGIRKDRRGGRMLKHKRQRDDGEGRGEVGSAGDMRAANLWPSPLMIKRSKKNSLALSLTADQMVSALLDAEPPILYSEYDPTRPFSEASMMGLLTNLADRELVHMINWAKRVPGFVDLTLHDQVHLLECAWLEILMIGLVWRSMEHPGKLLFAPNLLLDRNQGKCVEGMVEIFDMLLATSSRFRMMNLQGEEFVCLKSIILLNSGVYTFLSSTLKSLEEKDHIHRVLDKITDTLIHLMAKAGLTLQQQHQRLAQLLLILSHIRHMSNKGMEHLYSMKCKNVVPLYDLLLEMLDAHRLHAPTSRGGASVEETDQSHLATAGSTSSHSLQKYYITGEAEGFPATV
measured_metric: IC50

>>> assay_value("Clc1ccc(C(Cn2ccnc2)OCc2ccc(Sc3ccccc3)cc2)c(Cl)c1 (stereo not shown)")
"~14 µM"
